Below, each entry is listed with its recorded half-life.
Assay: Hepatic Stability Assay (in vitro half-life method)
Assay type: in vitro ADME
Parameters: dose or concentration left out as unconfirmed
Conditions: pooled cryopreserved hepatocytes, 37° C., 1×10^6 cells/mL, 0-6 hours, LC-MS/MS, 39.5 hours is the maximum detectable half life, read-out: t½ (converted)
Just the number in h, nothing appended.

Worked examples follow.
INSERT INTO results (structure_string, assay_endpoint, units_of_measure, result) VALUES
  ('Cc1c(C(=O)C(=O)NC2(c3cnn[nH]3)CC2)c2n(c1C(=O)Nc1ccc(F)cc1)[C@@H]1C[C@@H]1C2', 'half-life', 'h', 9.6),
  ('Cc1c(C(=O)C(=O)NC2(c3c[nH]nn3)CC2)c2n(c1C(=O)Nc1ccc(F)c(F)c1)[C@@H]1C[C@@H]1C2', 'half-life', 'h', 8),
  ('Cc1c(C(=O)C(=O)NC2(c3cn(C)nn3)CC2)c2n(c1C(=O)Nc1ccc(F)c(Cl)c1)CCC2', 'half-life', 'h', 14.8);

// field: half-life; key: `C#CC1(NC(=O)C(=O)c2c(C)c(C(=O)Nc3ccc(F)c(Cl)c3)n3c2CCC3)CC(F)(F)C1` ; value = 3.9

// field: half-life; key: `Cc1c(C(=O)C(=O)N[C@H](C)C(F)(F)F)c2n(c1C(=O)Nc1ccc(F)c(Cl)c1)C(C)(C)CC2` ; value = 0.6

// field: half-life; key: `Cc1c(C(=O)C(=O)NC2(c3c[nH]nn3)CC2)c2n(c1C(=O)Nc1cc(F)cc(F)c1)CCC2` ; value = 19.5

// field: half-life; key: `Cc1c(C(=O)C(=O)NC2(c3c[nH]nn3)CC2)c2n(c1C(=O)Nc1cccc(F)c1)CCC2` ; value = 17

====

Assay: Hepatic Stability Assay (in vitro half-life method)
Format: in vitro ADME
Design: dose or concentration left out as unconfirmed
Conditions: pooled cryopreserved hepatocytes, 37° C., 1×10^6 cells/mL, 0-6 hours, LC-MS/MS, 39.5 hours is the maximum detectable half life, read-out: t½ (converted)
// thresholds for half-life classes: lower bin (below 7 h), middle bin (7 h to below 10 h), upper bin (10 h or more)

INSERT INTO assay_data (compound, cat) VALUES
  ('Cc1c(C(=O)C(=O)NC2(c3c[nH]nn3)CC(F)(F)C2)c2n(c1C(=O)Nc1ccc(F)c(C#N)c1)[C@@H]1C[C@@H]1C2', 'lower bin');

Categorize the following entry: `Cc1c(C(=O)C(=O)NC2(c3c[nH]nn3)CC2)c2n(c1C(=O)Nc1cc(F)c(F)cc1F)CCC2` upper bin

Categorize the following entry: `Cc1c(C(=O)C(=O)NC2(c3cnn[nH]3)CC2)c2n(c1C(=O)Nc1ccc(F)cc1F)CCC2` upper bin

Categorize the following entry: `CNC(=O)C1(NC(=O)C(=O)c2c(C)c(C(=O)Nc3ccc(F)c(Cl)c3)n3c2CCC3)CC(F)(F)C1` upper bin

Categorize the following entry: `Cc1c(C(=O)C(=O)NC2(c3c[nH]nn3)CC(F)(F)C2)c2n(c1C(=O)Nc1ccc(F)c(F)c1)CCC2` middle bin

Categorize the following entry: `Cc1c(C(=O)C(=O)NC2(c3nncs3)CC2)c2n(c1C(=O)Nc1ccc(F)c(Cl)c1)[C@@H]1C[C@@H]1C2` lower bin

====

Experiment: Hepatic Stability Assay (in vitro half-life method)
Format: in vitro ADME
Design: dose or concentration left out as unconfirmed
Conditions: pooled cryopreserved hepatocytes, 37° C., 1×10^6 cells/mL, 0-6 hours, LC-MS/MS, 39.5 hours is the maximum detectable half life, read-out: t½ (converted)
We label by threshold. Values of half-life strictly beneath 10 h are Satisfied. Values of 10 h and up are Not satisfied.

Use these answered entries as a reference point.
INSERT INTO results (compound, cat) VALUES
  ('Cc1c(C(=O)C(=O)NC2(c3c[nH]nn3)CC(F)(F)C2)c2n(c1C(=O)Nc1ccnc(C(F)F)c1)CCC2', 'Not satisfied'),
  ('Cc1c(C(=O)C(=O)NC2(c3nncs3)CC2)c2n(c1C(=O)Nc1ccc(F)c(C#N)c1)[C@@H]1C[C@@H]1C2', 'Not satisfied'),
  ('CNC(=O)C1(NC(=O)C(=O)c2c(C)c(C(=O)Nc3cc(F)c(F)c(F)c3)n3c2C[C@H]2C[C@H]23)CC(F)(F)C1', 'Not satisfied');

Input `Cc1c(C(=O)C(=O)NC2(c3c[nH]nn3)CC(F)(F)C2)c2n(c1C(=O)Nc1ccc(F)c(F)c1)[C@@H]1C[C@@H]1C2` ; condition: half-life strictly below 10 h. Does it hold? Satisfied

Input CNC(=O)C1(NC(=O)C(=O)c2c(C)c(C(=O)Nc3ccc(F)c(Cl)c3)n3c2CCC3C)CC(F)(F)C1 (racemic) ; condition: half-life strictly below 10 h. Does it hold? Satisfied

Input `Cc1c(C(=O)C(=O)NC2(c3c[nH]nn3)CC2)c2n(c1C(=O)Nc1cccc(Cl)c1)CCC2` ; condition: half-life strictly below 10 h. Does it hold? Not satisfied

Input `Cc1c(C(=O)C(=O)NC2(c3cnn[nH]3)CC2)c2n(c1C(=O)Nc1ccc(F)c(Cl)c1F)CCC2` ; condition: half-life strictly below 10 h. Does it hold? Not satisfied

Input `Cc1c(C(=O)C(=O)NC2(c3c[nH]nn3)CC(F)(F)C2)c2n(c1C(=O)Nc1ccc(F)c(C#N)c1)CCC2` ; condition: half-life strictly below 10 h. Does it hold? Not satisfied

Input `Cc1c(C(=O)C(=O)NC2(C(=O)NC3(C)CS(=O)(=O)C3)CC(F)(F)C2)c2n(c1C(=O)Nc1ccc(F)c(Cl)c1)CCC2` ; condition: half-life strictly below 10 h. Does it hold? Not satisfied

Input `Cc1c(C(=O)C(=O)NC2(C(F)(F)F)COC2)c2n(c1C(=O)Nc1ccc(F)c(Cl)c1)CCC2` ; condition: half-life strictly below 10 h. Does it hold? Satisfied

Input `Cc1c(C(=O)C(=O)N[C@]2(C)C[S@@+]([O-])C2)c2n(c1C(=O)Nc1ccc(F)c(F)c1)CCC2` ; condition: half-life strictly below 10 h. Does it hold? Satisfied

Input `Cc1c(C(=O)C(=O)NC2(c3c[nH]nn3)CC(F)(F)C2)c2n(c1C(=O)Nc1ccnc(C(F)F)c1F)CCC2` ; condition: half-life strictly below 10 h. Does it hold? Not satisfied

Input `Cc1nnc(C2(NC(=O)C(=O)c3c(C)c(C(=O)Nc4ccc(F)c(Cl)c4)n4c3CCC4)CC2)o1` ; condition: half-life strictly below 10 h. Does it hold? Not satisfied

Input `Cc1c(C(=O)C(=O)NC2(c3c[nH]nn3)CC2)c2n(c1C(=O)Nc1ccc(F)c(C#N)c1)[C@@H]1C[C@@H]1C2` ; condition: half-life strictly below 10 h. Does it hold? Not satisfied

====

Test system: HBV AD38 viral particles in HepG2 cell line overexpressing NTCP
Test: HBV DNA Quantification Assay
Type: cell-based
Details: Hepatitis B virus, HepG2, 120 h, HBV-infected HepG2-NTCP cells, 5 days incubation, HBV DNA in culture supernatant (QuantiGene 2.0); geometric mean of a minimum of four determinations
Below, each entry is listed with its recorded EC50.
Just the number in nM, nothing appended.

INSERT INTO measurements (structure_string, assay_endpoint, units_of_measure, result) VALUES
  ('Cc1c(C(=O)C(=O)NC2(c3cnn[nH]3)CC2)c2n(c1C(=O)Nc1ccc(F)cc1F)CCC2', 'EC50', 'nM', 254),
  ('CNC(=O)C(C)(C)NC(=O)C(=O)c1c(C)c(C(=O)Nc2ccc(F)c(C(F)F)c2)n2c1CCC2', 'EC50', 'nM', 156),
  ('Cc1c(C(=O)C(=O)NC2(c3c[nH]nn3)CC(F)(F)C2)c2n(c1C(=O)Nc1ccc(F)c(C(F)F)c1)CCC2', 'EC50', 'nM', 2.9),
  ('Cc1c(C(=O)C(=O)NC2(c3cnn[nH]3)CC2)c2n(c1C(=O)Nc1cccc(OC(F)(F)F)c1)CCC2', 'EC50', 'nM', 294);

Sample `Cc1c(C(=O)C(=O)NC2(c3c[nH]nn3)CC(F)(F)C2)c2n(c1C(=O)Nc1ccc(F)c(F)c1)[C@@H]1C[C@@H]1C2` , system: HBV AD38 viral particles in HepG2 cell line overexpressing NTCP. Its EC50 is 2.1

Sample `Cc1c(C(=O)C(=O)NC2(c3nncs3)CC2)c2n(c1C(=O)Nc1ccc(F)c(Cl)c1)CCC2` , system: HBV AD38 viral particles in HepG2 cell line overexpressing NTCP. Its EC50 is 5

Sample `Cc1c(C(=O)C(=O)NC2(c3c[nH]nn3)CC2)c2n(c1C(=O)Nc1cc(F)c(F)cc1F)CCC2` , system: HBV AD38 viral particles in HepG2 cell line overexpressing NTCP. Its EC50 is 183
